# Growth Rate per entry
# Test system: HEK-293T
# PROTOCOL_NOTES: Incucyte cell viability with HEK293T; note: unitless GR value; below 1 slowed growth and below 0 cell loss
# Assay type: toxicity, cell-based
# SETTINGS: human, 6 h, 10 µM, compound concentration 10 uM, replicate number 2

Below, each entry is followed by its recorded Growth Rate result.
Tell us which Growth Rate value is on record for O=C(NS(=O)(=O)N1CCC1)c1cc(C2CC2)c(OCC23CC4CC(CC(C4)C2)C3)cc1F
0.7

Note down Growth Rate recorded for Cc1nc(Nc2cnn(C3CCNCC3)c2)nc2c1N(C)C(=O)c1cc3ccccc3cc1N2C
0.26

Return Growth Rate (reported value) for this compound: CC(C)(C)c1ccc(NC(=O)N2CCN(c3ncccc3Cl)CC2)cc1
-0.47

Look up Growth Rate of COc1ccc(-n2nc3c4ccccc4[nH]cc-3c2=O)cc1 and report it.
0.53

Next:
Entry Cc1ccc(NC(=O)c2ccc3c(c2)OCCO3)cc1NC(=O)c1ccc2nc(OCCN3CCCC3)ccc2c1 needs its Growth Rate filled in; supply it.
-0.96

Please look at this compound and report its Growth Rate: Cc1ccc(CNc2ncnc3ccc(-c4ccc(CO)o4)cc23)o1
0.11

Output measured Growth Rate for this item: C=CC(=O)Nc1cccc(C(=O)Nc2ccc(NC(=O)c3cccc(-c4ccn[nH]4)n3)cc2)c1
0.82

For the compound O=C(Nc1ccccc1Br)N[C@@H]1CCN(c2ccc(C(F)(F)F)cn2)C1 , give its reported Growth Rate.
-0.43

Please report Growth Rate for the following compound: COc1cc(N)c(Cl)cc1C(=O)NC1CN2CCC1CC2.Cl (stereo not given)
-0.12

Consider the compound O=C1NC(Nc2ccccc2)=N/C1=C\c1ccc2c(c1)OCO2 . State its measured Growth Rate.
0
